# target.or.test.system: EGFR (d746-750/T790M) (Homo sapiens, UniProt P00533, DEL746-750/T790M)
# Sequence (P00533 with tags, fused parts or gaps DEL746-750/T790M limits assumed): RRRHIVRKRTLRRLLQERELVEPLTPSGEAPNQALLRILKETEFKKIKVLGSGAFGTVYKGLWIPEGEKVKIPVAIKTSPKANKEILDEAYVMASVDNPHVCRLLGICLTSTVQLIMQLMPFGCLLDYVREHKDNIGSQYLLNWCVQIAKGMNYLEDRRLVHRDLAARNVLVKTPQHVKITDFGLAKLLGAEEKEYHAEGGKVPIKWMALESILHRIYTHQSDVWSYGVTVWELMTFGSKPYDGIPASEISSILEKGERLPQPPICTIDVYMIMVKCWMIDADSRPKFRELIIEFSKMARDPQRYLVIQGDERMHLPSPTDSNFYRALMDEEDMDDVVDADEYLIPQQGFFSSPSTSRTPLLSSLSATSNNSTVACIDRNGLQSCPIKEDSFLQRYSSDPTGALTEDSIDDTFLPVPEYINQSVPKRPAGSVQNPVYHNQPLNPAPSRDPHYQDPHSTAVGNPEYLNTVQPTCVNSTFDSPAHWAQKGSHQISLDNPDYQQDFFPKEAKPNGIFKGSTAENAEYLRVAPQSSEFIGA
# protocol: Exemplary Kinase Panel Analysis
# test.conditions: 10 concentrations, 3-fold serial dilutions starting at 5 μM, duplicate
readout.name: IC50 (µM)
State just the number; it will be interpreted in µM.

Problem: Read the entry "C=CC(=O)Nc1cc(CN2CCN(C)C(=O)C2)cc(-c2cnc3ccccc3n2)c1" and write its reported IC50.
Result: 0.0879

Problem: Read the entry "C=CC(=O)Nc1cc(CC(=O)OC)cc(-c2cnc3ccccc3n2)c1" and write its reported IC50.
Result: 0.299

Problem: Read the entry "C=CC(=O)Nc1cc(NS(C)(=O)=O)cc(-c2cnc3ccccc3n2)c1" and write its reported IC50.
Result: 0.996

Problem: Read the entry "C=CC(=O)Nc1cc(CN2CCNC(=O)C2)cc(-c2cnc3ccccc3n2)c1" and write its reported IC50.
Result: 0.56

---

Could you please report measured half-life for the items listed next?
# protocol: Human Liver Microsomes stability
# Assay type: in vitro ADME
# test.conditions: second session (after /), read-out: Human Liver Microsomes t½
State just the number; it will be interpreted in h.

Problem: Read the entry "C=CC(=O)Nc1cc(CC(=O)OC)cc(-c2cnc3ccccc3n2)c1" and write its reported half-life.
Result: 0.0917

Problem: Read the entry "C=CC(=O)Nc1cc(CN2CCN(C)C(=O)C2)cc(-c2cnc3ccccc3n2)c1" and write its reported half-life.
Result: 1

Problem: Read the entry "C=CC(=O)Nc1cc(NS(C)(=O)=O)cc(-c2cnc3ccccc3n2)c1" and write its reported half-life.
Result: 1

---

# protocol: Rat Liver Microsomes stability
# Format: in vitro ADME
# test.conditions: second session (after /), read-out: Rat Liver Microsomes t½
Could you please report measured half-life for the items listed next?
State just the number; it will be interpreted in min.

Problem: Read the entry "C=CC(=O)Nc1cc(CN2CCN(C)C(=O)C2)cc(-c2cnc3ccccc3n2)c1" and write its reported half-life.
Result: 36

Problem: Read the entry "C=CC(=O)Nc1cc(CN2CCNC(=O)C2)cc(-c2cnc3ccccc3n2)c1" and write its reported half-life.
Result: 77

Problem: Read the entry "C=CC(=O)Nc1cc(NS(C)(=O)=O)cc(-c2cnc3ccccc3n2)c1" and write its reported half-life.
Result: 60

Problem: Read the entry "C=CC(=O)Nc1cc(CC(=O)OC)cc(-c2cnc3ccccc3n2)c1" and write its reported half-life.
Result: 2.2

---

# target.or.test.system: CYP3A4 (Homo sapiens)
# Sequence (P08684 whole entry): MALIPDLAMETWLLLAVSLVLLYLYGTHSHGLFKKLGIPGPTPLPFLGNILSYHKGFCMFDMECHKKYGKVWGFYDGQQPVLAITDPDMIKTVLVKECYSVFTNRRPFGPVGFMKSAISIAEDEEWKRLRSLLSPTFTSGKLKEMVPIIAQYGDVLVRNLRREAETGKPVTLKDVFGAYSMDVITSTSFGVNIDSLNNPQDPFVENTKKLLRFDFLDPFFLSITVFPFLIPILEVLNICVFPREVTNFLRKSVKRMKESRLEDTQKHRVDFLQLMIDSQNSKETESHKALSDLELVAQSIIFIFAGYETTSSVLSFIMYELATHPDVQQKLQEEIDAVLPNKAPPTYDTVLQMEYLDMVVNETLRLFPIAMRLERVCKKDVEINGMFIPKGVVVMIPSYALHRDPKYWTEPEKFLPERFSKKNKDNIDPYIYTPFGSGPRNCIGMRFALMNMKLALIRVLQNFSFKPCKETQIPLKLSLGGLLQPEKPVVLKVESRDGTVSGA
# protocol: CYP3A4 inhibition midazolam LCMS
# Format: in vitro ADME
# test.conditions: second session (after /)
readout.name: IC50

Problem: Read the entry C=CC(=O)Nc1cc(NS(C)(=O)=O)cc(-c2cnc3ccccc3n2)c1 [Compound 3] and write its reported IC50.
Result: > 100 µM

Problem: Read the entry C=CC(=O)Nc1cc(CC(=O)OC)cc(-c2cnc3ccccc3n2)c1 [Compound 2] and write its reported IC50.
Result: > 100 µM

Problem: Read the entry C=CC(=O)Nc1cc(CN2CCN(C)C(=O)C2)cc(-c2cnc3ccccc3n2)c1 [Compound 1a] and write its reported IC50.
Result: > 100 µM

Problem: Read the entry C=CC(=O)Nc1cc(CN2CCNC(=O)C2)cc(-c2cnc3ccccc3n2)c1 [Compound 1b] and write its reported IC50.
Result: > 100 µM
